Biological target: hGIPR (Homo sapiens)
Sequence (P48546 22-466): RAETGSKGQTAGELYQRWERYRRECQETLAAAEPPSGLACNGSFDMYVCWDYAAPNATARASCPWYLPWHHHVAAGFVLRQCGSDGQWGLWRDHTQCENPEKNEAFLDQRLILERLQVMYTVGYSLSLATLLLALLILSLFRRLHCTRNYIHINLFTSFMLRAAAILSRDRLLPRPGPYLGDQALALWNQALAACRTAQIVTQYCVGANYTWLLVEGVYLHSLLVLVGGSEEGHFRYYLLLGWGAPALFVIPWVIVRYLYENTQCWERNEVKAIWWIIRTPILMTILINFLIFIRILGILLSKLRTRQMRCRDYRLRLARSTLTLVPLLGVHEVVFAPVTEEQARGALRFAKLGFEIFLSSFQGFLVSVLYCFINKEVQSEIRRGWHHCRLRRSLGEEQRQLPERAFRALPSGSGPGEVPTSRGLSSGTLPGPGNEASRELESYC
Assay: Functional cAMP activation in the presence of 0.1% casein (no HSA);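 also: intracellular cAMP rise after 30 min at 37 °C read by HTRF against a standard curve, scaled between buffer alone (0%) and top control ligand concentration (100%), four-parameter fit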
Assay type: cell-based
Conditions: in the presence of 0.1% casein (no HSA); geometric mean; read-out: Relative cAMP EC50, hGIPR
Starred links: 1 amine or outer side, 2 acyl side, 3 side chain; linkers in the order of their positions; H or OH if unused. Non-standard residues stand in square brackets, D forms with d. Groups on a side chain read outwards from the residue. *: point of attachment. C20 diacid = O=C(O)CCCCCCCCCCCCCCCCCCC(=O)*; C18 diacid = O=C(O)CCCCCCCCCCCCCCCCC(=O)*; αMePhe(2-F) = C[C@](N)(Cc1ccccc1F)C(=O)O; γGlu = O=C(O)[C@H](CCC(=O)[*:2])N[*:1]; αMe4Pal = C[C@](N)(Cc1ccncc1)C(=O)O; αMeY = C[C@](N)(Cc1ccc(O)cc1)C(=O)O; αMeF = C[C@](N)(Cc1ccccc1)C(=O)O; 4Pal = N[C@@H](Cc1ccncc1)C(=O)O; αMeL = CC(C)C[C@](C)(N)C(=O)O; αMeS = C[C@](N)(CO)C(=O)O; Orn = NCCC[C@H](N)C(=O)O; AEEA = NCCOCCOCC(=O)O; Aib = CC(C)(N)C(=O)O
EC50 under 0.09 nM gets Criterion met, anything at or over 0.09 nM gets Criterion not met.

Does the reported EC50 of H-Y[Aib]QGT[αMePhe(2-F)]TSD[4Pal][αMeS]I[αMeL]LD[Orn]K([AEEA-γGlu-C18 diacid])AQ[αMe4Pal]EFI[dE][αMeY]LIEGGPSSGAPPPGGE-NH2 [Example 1144] stay below 0.09 nM?
Criterion met

Does the reported EC50 of H-Y[Aib]QGT[αMePhe(2-F)]TSD[4Pal][αMeS]I[αMeL]LD[Orn]K([AEEA-γGlu-C18 diacid])AQ[αMe4Pal]EFI[dE][αMeY]LIEGGPPS[Aib][Orn]PPP[Orn]GS-NH2 [Example 1189] stay below 0.09 nM?
Criterion met

Does the reported EC50 of H-Y[Aib]QGTFTSD[4Pal]SQ[αMeL]LD[Orn]K([AEEA-γGlu-C18 diacid])AQ[αMe4Pal]AFIE[αMeY]LIE[Aib]GPSSGAPPPSGSEE-NH2 [Example 1108] stay below 0.09 nM?
Criterion met

Does the reported EC50 of H-Y[Aib]QGTFTSDFS[Orn][αMeL]LDKK([AEEA-AEEA-γGlu-C18 diacid])AQ[Aib]AFIEYLLEGGPSSGAPPPGES-NH2 [Example 118] stay below 0.09 nM?
Criterion not met

Does the reported EC50 of H-Y[Aib]QGTFTSDFS[Orn][αMeL]LDKK([AEEA-γGlu-C18 diacid])AQ[Aib]AFIEYLIE[Aib]GESSGAPPPSGS-NH2 [Example 218] stay below 0.09 nM?
Criterion met

Does the reported EC50 of H-Y[Aib]QGTFTSDFSK[αMeL]LDKK([AEEA-γGlu-C20 diacid])AQ[Aib]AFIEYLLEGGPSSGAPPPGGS-NH2 [Example 18] stay below 0.09 nM?
Criterion not met

Does the reported EC50 of H-Y[Aib]QGTFTSD[4Pal]SQ[αMeL]LDKK([γGlu-γGlu-C18 diacid])AQ[αMe4Pal]AFIE[αMe4Pal]LIE[Aib]GPSSGAPPPSGTGE-NH2 [Example 1119] stay below 0.09 nM?
Criterion not met

Does the reported EC50 of H-Y[Aib]QGTFTSD[4Pal]SQ[αMeL]LD[Orn]K([AEEA-γGlu-C18 diacid])AQ[Aib]AFIE[αMeY]LLEGGPSSGAPPPSGS-NH2 [Example 911] stay below 0.09 nM?
Criterion not met

Does the reported EC50 of H-Y[Aib]QGTFTSDFS[Orn][αMeL]LDKK([AEEA-γGlu-C18 diacid])AQ[αMe4Pal]AFIEYLIE[Aib]GESSGAPPPSGE-NH2 [Example 228] stay below 0.09 nM?
Criterion not met

Does the reported EC50 of H-Y[Aib]QGT[αMeF]TSD[4Pal][αMeS]I[αMeL]LD[Orn]K([γGlu-γGlu-C18 diacid])AQ[αMe4Pal]EFI[dE][αMeY]LIEGGPSSGAPPPSGE-NH2 [Example 1170] stay below 0.09 nM?
Criterion met

Does the reported EC50 of H-Y[Aib]QGTFTSDFS[Orn][αMeL]LDKK([AEEA-γGlu-C18 diacid])AQ[Aib]AFIEWLLEGGSSSGAPPPSGT-NH2 [Example 174] stay below 0.09 nM?
Criterion not met
